system_tested: Nucleocapsid protein (N), unmodified (SARS-CoV-2, UniProt P0DTC9 2-419)
assay_notes: fluorescence polarization
condition_context: protein: recombinant; tags: N-terminal 6xHis-TEV site, cleaved by TEV (Gly left before S2); chain copies: 2; label: 5'-FAM; hairpin
measured_parameter: pKd
// pKd here means minus log10 of the molar concentration (mol/L)

# input binder: CUGUGUGGCUGUCACUCGGCUGCAUGCUUAGUGCACUCACGCAG (structured_RNA) [SL4 RNA] ; wanted: its pKd
7.96

The reported numbers originate from paper PMC12381204.
